Values were extracted from patent US20060247223A1.

Below, each entry is listed with its recorded Kb.
Molecular target: H3 receptor (Cavia porcellus, UniProt Q9JI35)
Construct: longitudinal muscle strips from guinea-pig small intestine were dissected out; from tissue; host or cells: guinea-pig small intestine longitudinal muscle strips
Sequence (Q9JI35 whole entry): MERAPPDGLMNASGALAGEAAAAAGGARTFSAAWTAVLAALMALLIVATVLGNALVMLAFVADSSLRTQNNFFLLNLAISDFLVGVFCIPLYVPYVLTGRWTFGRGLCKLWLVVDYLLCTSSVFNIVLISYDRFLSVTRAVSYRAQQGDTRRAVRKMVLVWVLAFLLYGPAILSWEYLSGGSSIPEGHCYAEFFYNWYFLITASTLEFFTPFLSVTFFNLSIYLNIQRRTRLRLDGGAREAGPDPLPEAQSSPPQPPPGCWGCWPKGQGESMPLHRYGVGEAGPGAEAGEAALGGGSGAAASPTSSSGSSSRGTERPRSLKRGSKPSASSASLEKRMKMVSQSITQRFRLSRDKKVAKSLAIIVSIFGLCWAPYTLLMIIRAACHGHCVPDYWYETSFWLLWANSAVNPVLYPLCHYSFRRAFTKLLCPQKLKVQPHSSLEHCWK
Assay: guinea-pig ileum longitudinal muscle strips, electrically stimulated contraction, (R)α-methylhistamine curves with antagonist
Assay type: biochemical
Conditions: against (R)α-methylhistamine, 1 μM mepyramine present, read-out: H3-receptor antagonist activity pA2 (guinea-pig ileum) (converted)
measurement_type: Kb

> print(dat)
                                   compound    result
1                  c1ccc(CCCCCCN2CCCCC2)cc1  0.316 µM
2             CCCCCCC(=O)N1CCC(N2CCCCC2)CC1  0.398 µM
3                c1ccc2sc(NCCN3CCCCC3)nc2c1  0.251 µM
4  CCCCCNC(=O)OCCCN1CCCCC1 [Example 120, N-Pentyl-3-piperidinopropyl carbamate]  0.501 µM

###

Structures can show the parent of a compound that is named as a salt.
measurement_type: melting point

> print(dat)
                                    molecule  measurement.type         result
 1  CC(=O)c1ccc(OCCCN2C[C@H](C)C[C@H](C)C2)cc1 (as salt: oxalate) [Example 70]     melting point  174 to 175 °C
 2  O=C(c1ccc(OCCCN2CCCCC2)cc1)C1CCC1 (as salt: oxalate) [Example 89]     melting point    80 to 82 °C
 3  CCC(C)c1ccc(OCCCN2CCCCC2)cc1 (stereo not drawn) (as salt: oxalate) [Example 112]     melting point  133 to 136 °C
 4  CC(=O)c1ccc(OCCCN2CCCC(C)C2)cc1 (stereo not drawn) (as salt: oxalate) [Example 66]     melting point  143 to 144 °C
 5  C[C@H]1C[C@H](C)CN(CCCCCOc2ccccc2)C1 (stereo in doubt) (as salt: oxalate) [Example 12]     melting point  154 to 155 °C
 6  CC(=O)c1ccc(OCCCN2CC=CCC2)cc1 (as salt: oxalate) [Example 75]     melting point  143 to 144 °C
 7  CCC(=NOC)c1ccc(OCCCN2CCC(C)CC2)cc1 (as salt: oxalate) [Example 99]     melting point  179 to 181 °C
 8  CC1CCCN(CCCOc2ccc([N+](=O)[O-])cc2)C1 (stereo not drawn) (as salt: oxalate) [Example 83]     melting point  172 to 174 °C
 9  N#Cc1ccc(OCCCCCN2CCCCC2)cc1 (as salt: oxalate) [Example 52, 1-[5-(4-cyanophenoxy)-pentyl]-piperidine]     melting point  115 to 116 °C
10  c1cc2c(c(OCCCCCN3CCCC3)c1)CCCC2 (as salt: oxalate) [Example 30]     melting point  148 to 149 °C
11  N#Cc1cccc(OCCCCCN2CCCC2)c1 (as salt: oxalate) [Example 41]     melting point  119 to 120 °C
12  CCN(CC)CCCOc1ccc(C(C)=O)cc1 (as salt: oxalate) [Example 46]     melting point  108 to 110 °C

###

Structures can show the parent of a compound that is named as a salt.
Below, each entry is listed with its recorded melting point.
measurement_type: melting point

> print(dat)
                                   compound         result
1  c1ccc(SCCCCCN2CCCC2)cc1 (as salt: oxalate) [Example 33, 1-(5-phenylthiopentyl)-pyrrolidine]  150 to 152 °C
2  CC(=O)c1ccc(OC[C@H](C)CN2CCCCC2)cc1 (as salt: oxalate) [Example 77]  149 to 151 °C
3  c1ccc(OCCCCCN2CCCC2)cc1 (as salt: oxalate) [Example 2, 1-(5-phenoxypentyl)-pyrrolidine]  153 to 155 °C
4  Clc1cccc(OCCCCCN2CCCC2)c1 (as salt: oxalate) [Example 25]  131 to 132 °C

###

Counter-ions that a name gives are not always drawn.
Below, each entry is listed with its recorded melting point.
measurement_type: melting point

> print(dat)
                                    molecule  measurement.type         result
 1  CC1CCCCN1CCCCCOc1ccccc1 (stereo not drawn) (as salt: oxalate)     melting point    80 to 83 °C
 2  CCOC(=O)C1CCCN(CCCCCOc2ccccc2)C1 (stereo not drawn) (as salt: oxalate)     melting point  117 to 118 °C
 3  CC[C@@H]1CC[C@H](C)N(CCCOc2ccc(C#N)cc2)C1 (relative stereo) (as salt: oxalate)     melting point  158 to 159 °C
 4  CC1CCCN(CCCCCOc2ccccc2)C1 (stereo not drawn)     melting point  140 to 141 °C
 5  CCCN(CCC)CCCOc1ccc(C#N)cc1 (as salt: oxalate)     melting point  127 to 128 °C
 6  c1ccc(OCCCCCN2CCCCC2)cc1 (as salt: oxalate)     melting point  143 to 145 °C
 7  CC(=O)c1ccc(OCC(C)CN2CCCCC2)cc1 (stereo not drawn) (as salt: oxalate)     melting point  148 to 150 °C
 8  CC1CCN(CCCOc2ccc(C#N)cc2)CC1 (as salt: hydrochloride)     melting point  200 to 202 °C
 9  CC1CCCN(CCCCCOc2ccc([N+](=O)[O-])cc2)C1 (stereo not drawn) (as salt: oxalate)     melting point  148 to 149 °C
10  c1ccc(OCCCCCCN2CCCC2)cc1 (as salt: oxalate)     melting point  146 to 147 °C
11  CC1CCN(CCCCCOc2ccccc2)CC1 (as salt: oxalate)     melting point  151 to 152 °C
12  c1cc2c(cc1OCCCCCN1CCCC1)CCCC2 (as salt: oxalate)     melting point  131 to 132 °C
13  c1ccc2c(OCCCCCN3CCCC3)cccc2c1 (as salt: oxalate) [Example 24, 1-[5-(1-naphthyloxy)-pentyl]-pyrrolidine]     melting point  160 to 163 °C
14  CC(C)C(=O)c1ccc(OCCCN2CCCCC2)cc1 (as salt: oxalate)     melting point  121 to 122 °C
15  C[C@H]1C[C@H](C)CN(CCCOc2ccc(C#N)cc2)C1 (relative stereo) (as salt: oxalate)     melting point  163 to 165 °C

###

Where a name gives a salt, the structure may show the parent alone.
Below, each entry is listed with its recorded melting point.
measurement_type: melting point

> print(dat)
                                    molecule         result
 1  C[C@@H]1C[C@H](C)CN(CCCOc2ccc(C(=O)C3CC3)cc2)C1 (as salt: oxalate)  130 to 132 °C
 2  CCC(O)c1ccc(OCCCN2CCC(C)CC2)cc1 (centres unmarked) (as salt: oxalate)  182 to 183 °C
 3  CCN(CC)CCCCCOc1ccc(C#N)cc1 (as salt: oxalate)  120 to 122 °C
 4  CC1CCCCN1CCCOc1ccc([N+](=O)[O-])cc1 (centres unmarked) (as salt: oxalate)  151 to 153 °C
 5  N#Cc1ccc(OCCCN2CCCC2)cc1 (as salt: oxalate)  163 to 165 °C
 6  CCN(CC)CCCOc1ccc(C#N)cc1 (as salt: oxalate)  148 to 150 °C
 7  CC1CCCN(CCCOc2ccc(C#N)cc2)C1.Cl (centres unmarked)  171 to 173 °C
 8  N#Cc1ccc(OCCCN2CCCCC2)cc1F (as salt: hydrochloride)  157 to 159 °C
 9  Cc1ccc(OCCCCCN2CCCC2)cc1 (as salt: oxalate)  138 to 140 °C
10  CC(=O)N1CCN(CCCCCOc2ccccc2)CC1 (as salt: oxalate)  186 to 188 °C
11  CCCc1ccc(OCCCN2CCCCC2)cc1 (as salt: oxalate) [Example 113, 1-[3-(4-propylphenoxy)propyl]piperidine]  121 to 124 °C
12  CCC(=O)c1ccc(OCCCN2CCCC(C)C2)cc1 (centres unmarked) (as salt: oxalate)  135 to 136 °C
13  C1=CCN(CCCCCOc2ccccc2)CC1 (as salt: oxalate)  177 to 179 °C
14  CCC(=O)c1ccc(OCCCN2CCCCC2C)cc1 (centres unmarked) (as salt: oxalate)    92 to 94 °C
15  N#Cc1ccc(OCCCN2CCCCCC2)cc1 (as salt: oxalate)  124 to 125 °C
16  N#Cc1ccc(OCCCN2CCCCC2)cc1 (as salt: oxalate) [Example 59, 1-[3-(4-cyanophenoxy)propyl]piperidine]  151 to 153 °C
17    C[C@@H]1CCC[C@H](C)N1CCCCCOc1ccccc1.Cl  135 to 136 °C

###

Below, each entry is listed with its recorded melting point.
Structures can show the parent of a compound that is named as a salt.
measurement_type: melting point

> print(dat)
                                    compound         result
 1  O=[N+]([O-])c1cccc(OCCCCCN2CCCC2)c1 (as salt: oxalate)  130 to 131 °C
 2  Clc1ccc(OCCCCCN2CCCC2)cc1 (as salt: oxalate)  139 to 141 °C
 3  CC(C)c1ccc(OCCCN2CCCCC2)cc1 (as salt: oxalate)  131 to 134 °C
 4  CCCN(CC)CCCCCOc1ccccc1 (as salt: oxalate)    90 to 91 °C
 5  CC(=O)c1ccc(OCCCN2CCC(C)CC2)cc1 (as salt: oxalate)  160 to 161 °C
 6  CC1CCN(CCCOc2ccc([N+](=O)[O-])cc2)CC1 (as salt: oxalate)  119 to 121 °C
 7  O=C(Nc1ccc(OCCCCCN2CCCC2)cc1)c1ccccc1 (as salt: oxalate)  176 to 178 °C
 8   CCN(C)CCCCCOc1ccccc1 (as salt: oxalate)  122 to 124 °C
 9  CCN(CC)CCCOc1ccc(/C(C)=N/O)cc1 (as salt: oxalate)   99 to 100 °C
10  N#Cc1ccc(OCCCCCN2CCCC2)cc1 (as salt: oxalate)  129 to 130 °C
11  c1ccc(-c2ccc(OCCCCCN3CCCC3)cc2)cc1 (as salt: oxalate)  189 to 190 °C
12  CCN(CC)CCCCCCOc1ccc(C#N)cc1 (as salt: oxalate)  110 to 112 °C
13  Fc1ccc(OCCCCCN2CCCC2)cc1 (as salt: oxalate)  149 to 150 °C
14  CCOC(=O)C1CCN(CCCCCOc2ccccc2)CC1 (as salt: oxalate)  149 to 150 °C
15  O=C(Cc1ccccc1)c1ccc(OCCCCCN2CCCC2)cc1 (as salt: oxalate)  177 to 178 °C
16  Brc1ccc(OCCCN2CCCCC2)cc1 (as salt: oxalate) [Example 108, 1-[3-(4-bromophenoxy)propyl]piperidine]  175 to 177 °C
17  CN(C)CCCOc1ccc(C#N)cc1 (as salt: oxalate)  166 to 167 °C
18  CC(=O)c1ccc(OCCCCCN2CCCC2)cc1 (as salt: oxalate)  130 to 134 °C
19  CCCC(=O)c1ccc(OCCCN2CCCCC2)cc1 (as salt: oxalate) [Example 74, 1-[3-(4-buyrylphenoxy)propyl]piperidine]  138 to 139 °C
20  Nc1ccc(OCCCCCN2CCCC2)cc1 (as salt: oxalate)  120 to 122 °C
21  C[C@@H]1C[C@H](C)CN(CCCOc2ccc(C#N)cc2)C1 (as salt: oxalate)  161 to 163 °C
22  O=[N+]([O-])c1ccc(OCCCN2CCCCC2)cc1 (as salt: oxalate) [Example 109, 1-[3-(4-nitrophenoxy)propyl]piperidine]  148 to 151 °C
23  COc1ccc(OCCCCCN2CCCC2)cc1 (as salt: oxalate)  115 to 116 °C
24  CCc1ccc(OCCCN2CCCCC2)cc1 (as salt: oxalate) [Example 114, 1-[3-(4-ethylphenoxy)propyl]piperidine]  148 to 151 °C
25  CCC(=NOC)c1ccc(OCCCN2CCCCC2C)cc1.Cl (stereo not drawn)  185 to 187 °C
26  O=C(c1ccccc1)c1ccc(OCCCCCN2CCCC2)cc1 (as salt: oxalate)  141 to 142 °C
27  CCCC1CCN(CCCCCOc2ccccc2)CC1 (as salt: oxalate)  165 to 166 °C
